Reported pIC50 values for the following molecules.
Target chain: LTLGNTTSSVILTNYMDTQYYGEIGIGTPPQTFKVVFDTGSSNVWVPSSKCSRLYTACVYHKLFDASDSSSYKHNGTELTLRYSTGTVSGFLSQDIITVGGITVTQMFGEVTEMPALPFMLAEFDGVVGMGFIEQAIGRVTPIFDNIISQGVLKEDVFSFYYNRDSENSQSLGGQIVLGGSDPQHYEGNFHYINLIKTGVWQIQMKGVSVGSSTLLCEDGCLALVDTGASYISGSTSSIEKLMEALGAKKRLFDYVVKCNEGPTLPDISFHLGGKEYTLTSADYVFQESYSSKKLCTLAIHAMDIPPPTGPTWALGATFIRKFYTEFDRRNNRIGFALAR
FYI, pIC50 means -log10 of a concentration in mol per litre.

Completed entries (count: 3):
{"Molecule": "CC(C)C[C@H](O)[C@H](O)[C@H](CC1CCCCC1)NC(=O)[C@H](Cn1cccn1)N(C)C(=O)C(Cc1ccccc1)NC(=O)N(C)CCc1ccccn1 (stereo partly shown) [Example 156]", "Assay value": 8.89}
{"Molecule": "CC(C)C[C@H](O)[C@H](O)[C@H](CC1CCCCC1)NC(=O)[C@H](Cc1cscn1)NC(=O)[C@@H](CC(=O)N1CCN(C2CC2)CC1)Cc1ccccc1 [Example 125]", "Assay value": 9.26}
{"Molecule": "CC(C)C[C@H](O)[C@H](O)[C@H](CC1CCCCC1)NC(=O)[C@H](Cc1cscn1)NC(=O)[C@@H](CC(=O)N1CCN(CC(F)(F)F)CC1)Cc1ccccc1 [Example 94]", "Assay value": 9.24}

Please look at the following molecule next.
Look up and report measured pIC50 for this entry: CC(C)C[C@H](O)[C@H](O)[C@H](CC1CCCCC1)NC(=O)[C@H](Cc1cc[nH]n1)NC(=O)[C@@H](CC(=O)N(C)CCN1CCOCC1)Cc1ccccc1 [Example 155]
9.49
